Biological target: fibrinogen receptor, glycoprotein IIb/IIIa (Homo sapiens, UniProt P05106+P08514)
Construct: obtained from Triton X-100 extracts of human blood platelets
Sequence (P08514 32-887 limits assumed): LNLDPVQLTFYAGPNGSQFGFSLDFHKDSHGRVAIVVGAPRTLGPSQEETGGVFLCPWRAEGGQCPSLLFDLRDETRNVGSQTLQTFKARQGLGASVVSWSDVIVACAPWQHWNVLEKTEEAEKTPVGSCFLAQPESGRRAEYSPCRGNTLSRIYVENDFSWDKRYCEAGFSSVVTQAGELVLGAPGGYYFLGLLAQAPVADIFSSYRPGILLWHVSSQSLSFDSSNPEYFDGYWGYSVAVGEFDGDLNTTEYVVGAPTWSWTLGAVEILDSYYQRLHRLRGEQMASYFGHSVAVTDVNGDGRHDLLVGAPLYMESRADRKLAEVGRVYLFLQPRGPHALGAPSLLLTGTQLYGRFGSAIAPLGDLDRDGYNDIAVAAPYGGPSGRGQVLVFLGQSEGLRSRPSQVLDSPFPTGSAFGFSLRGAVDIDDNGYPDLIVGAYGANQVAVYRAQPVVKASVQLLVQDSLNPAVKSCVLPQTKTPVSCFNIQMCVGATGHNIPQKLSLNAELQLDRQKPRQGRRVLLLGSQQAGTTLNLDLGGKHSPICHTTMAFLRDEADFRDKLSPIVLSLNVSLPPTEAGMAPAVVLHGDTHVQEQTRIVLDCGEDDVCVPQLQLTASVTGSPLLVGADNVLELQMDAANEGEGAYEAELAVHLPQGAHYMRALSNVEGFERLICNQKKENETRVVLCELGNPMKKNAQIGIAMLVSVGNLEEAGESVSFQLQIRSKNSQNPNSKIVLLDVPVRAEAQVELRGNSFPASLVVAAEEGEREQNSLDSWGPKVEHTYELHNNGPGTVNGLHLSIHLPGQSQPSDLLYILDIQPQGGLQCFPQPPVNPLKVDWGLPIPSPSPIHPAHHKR
Sequence (P08514 891-1039 partner limits assumed): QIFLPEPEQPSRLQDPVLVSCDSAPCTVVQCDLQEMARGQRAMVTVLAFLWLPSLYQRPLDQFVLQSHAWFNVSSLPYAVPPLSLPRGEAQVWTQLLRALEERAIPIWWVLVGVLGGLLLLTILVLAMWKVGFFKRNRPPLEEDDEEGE
Sequence (P05106 27-788): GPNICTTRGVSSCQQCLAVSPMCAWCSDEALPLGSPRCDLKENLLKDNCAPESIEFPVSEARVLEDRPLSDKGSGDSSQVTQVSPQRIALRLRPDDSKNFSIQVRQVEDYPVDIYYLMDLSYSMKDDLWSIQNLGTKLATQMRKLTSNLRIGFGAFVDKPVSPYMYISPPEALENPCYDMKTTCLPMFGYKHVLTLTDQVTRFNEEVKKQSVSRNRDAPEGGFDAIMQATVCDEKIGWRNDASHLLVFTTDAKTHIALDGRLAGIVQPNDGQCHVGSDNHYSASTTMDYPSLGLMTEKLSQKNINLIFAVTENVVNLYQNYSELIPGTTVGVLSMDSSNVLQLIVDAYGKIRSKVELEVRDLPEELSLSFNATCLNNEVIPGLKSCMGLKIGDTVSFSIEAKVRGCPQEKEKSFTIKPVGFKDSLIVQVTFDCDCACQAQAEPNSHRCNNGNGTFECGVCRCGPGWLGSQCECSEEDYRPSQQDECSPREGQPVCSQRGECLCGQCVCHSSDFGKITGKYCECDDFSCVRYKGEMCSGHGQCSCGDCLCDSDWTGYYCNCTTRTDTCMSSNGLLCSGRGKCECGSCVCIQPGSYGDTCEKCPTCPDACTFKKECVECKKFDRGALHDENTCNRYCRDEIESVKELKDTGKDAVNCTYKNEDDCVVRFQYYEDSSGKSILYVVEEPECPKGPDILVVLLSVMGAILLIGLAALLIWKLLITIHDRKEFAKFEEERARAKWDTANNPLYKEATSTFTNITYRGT
Assay: Inhibition of fibrinogen binding to immobilised fibrinogen receptor glycoprotein IIb/IIIa (ELISA)
Details: glycoprotein IIb/IIIa from human blood platelets, bound to microtiter plates, read-out: IC50 (concentration required to inhibit the binding of fibrinogen to the immobilised receptor by 50%)
experimental readout: IC50 (nM)

Example entries begin here.
{"columns": ["cpd smiles", "IC50 / nM"],
 "data": [
  ["CCOC(=O)[C@H](CO)NC(=O)[C@H](CC(=O)O)NC(=O)CCNC(=O)c1ccc(C(=N)N)cc1", 5],
  ["CC(C)[C@H](NC(=O)[C@H](CC(=O)O)NC(=O)CCNC(=O)c1ccc(C(=N)N)cc1)C(=O)O", 3.6]
]}

P. N=C(N)N1CCC(C(=O)NCCC(=O)N[C@@H](CC(=O)O)C(=O)N[C@@H](Cc2ccccc2)C(=O)O)CC1
Q. N=C(N)c1ccc(C(=O)NCCC(=O)N[C@@H](CC(=O)O)C(=O)N[C@@H](Cc2ccccc2)C(=O)O)cc1
## Task Among P and Q , whose measured IC50 is the smaller figure? The response must carry the label of the picked entry.
## Result Q
(Q: 0.3 nM, P: 130 nM)

###

Molecular target: fibrinogen receptor, glycoprotein IIb/IIIa (Homo sapiens, UniProt P05106+P08514)
Construct: obtained from Triton X-100 extracts of human blood platelets
Experiment: Inhibition of fibrinogen binding to immobilised fibrinogen receptor glycoprotein IIb/IIIa (ELISA)
Settings: glycoprotein IIb/IIIa from human blood platelets, bound to microtiter plates, read-out: IC50 (concentration required to inhibit the binding of fibrinogen to the immobilised receptor by 50%)
experimental readout: IC50 (nM)

{"columns": ["cpd smiles", "measured result"],
 "data": [
  ["CC(C)[C@H](NC(=O)[C@H](CC(=O)O)NC(=O)CCCNC(=O)c1ccc(C(=N)N)cc1)C(=O)O", 10]
]}

P. N=C(N)c1ccc(CCNC(=O)CC(=O)N[C@@H](CC(=O)O)C(=O)N[C@@H](Cc2ccccc2)C(=O)O)cc1
Q. CC(C)COC(=O)[C@H](CC(=O)O)NC(=O)CCCCNC(=O)c1ccc(C(=N)N)cc1
## Task Hi! Which is lower in terms of IC50, the first one P or the second one Q ? Mark your selection by writing its label.
## Result Q
